Just for reference, patent US20250340646A1 is where these values come from.

Biological target: T1, full-length human PD-L1 on K562 cells (human, UniProt Q9NZQ7 19-290)
T1 construct: also called PD-L1/K562; cell surface human PD-L1
T1 sequence (Q9NZQ7 19-290 limits assumed): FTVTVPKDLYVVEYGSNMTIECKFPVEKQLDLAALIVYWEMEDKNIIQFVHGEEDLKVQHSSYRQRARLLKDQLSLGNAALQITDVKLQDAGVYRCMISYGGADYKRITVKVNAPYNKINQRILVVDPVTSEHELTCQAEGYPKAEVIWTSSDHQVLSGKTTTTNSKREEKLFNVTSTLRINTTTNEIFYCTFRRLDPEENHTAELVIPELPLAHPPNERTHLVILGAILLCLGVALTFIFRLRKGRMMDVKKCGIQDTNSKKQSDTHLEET
Experiment: FACS, PD-L1/K562 cells
Method: Cells were spun down at 1200 rpm for 5 minutes at 4° C. to remove primary antibodies. Cells were then washed once with 200 μL of full medium per well. […] Samples were spun down at 1200 rpm for 5 minutes at 4° C. and washed twice with 200 μL of 1×PBS per well. Samples were reconstituted in 200 μL of 1×PBS and were read on Attune NxT cytometer.
pEC50: −log10 of the molar value.

# binder, pEC50
data = [
    ("2018EP173-H11 scFv (scFv, V domains shown, not shown: scFv linker and domain order of the library scFv) VH: QVQLVQSGGGLVKPGGSLRLSCAASGFTFSSYSMNWVRQAPGKGLEWVSSISSSSSYIYYADSVKGRFTISRDNAKNSLYLQMNSLKAEDTAVYYCARDSLQWLALDYWGQGTLVTVSS VL: QPVLTQPPSVSVAPGETATITCGGNNIGRKSVHWYLQKPGQAPVLVIGHDTDRPSGIPARFSGSNSGNTATLTINRVEAGDEADYYCQVWDTSGHHYVFGTGTKVTVL", 8.29),
    ("2018EP170-E06 scFv (scFv, V domains shown) VH: EVQLVQSGAEVKKPGSSVKVSCKASGGTFSSYAISWVRQAPGQGLEWMGGIIPIFGTANYAQKFQGRVTITADESTSTAYMELSSLRSEDTAVYYCARDSRWGPAPHAFDIWGQGTMVTVSS VL: QQSVLTQPASVSGSPGQSITISCTGTSSDIGSYNLVSWYQNHPGKAPKLILYEITKRPSGVSSRFSGSKSGNAASLTISGLQAEDEAEYFCCSYAGLSVFFVFGGGTKL", 7.44),
    ("2018EP280-E01 scFv (scFv, V domains shown, not shown: scFv linker and domain order of the library scFv) VH: EVQLVESGGGLVKPGGSLRLSCAASGLTFSNAWMSWVRQAPGKGLEWVGRIKSKTDGGTTEYAAPVKGRFTISRDDSKNTLYLQMSSLKTEDTAVYYCTIVYYYDSSGPVFFQHWGQGTLVTVSS VL: QSVLTQPPSASATPGQRVTISCSGSDSNIATNYVYWYQQFPGTAPKLLIYRNHQRPSGVPDRFSGSRSGTSASLAISGLRSEDEADYYCATWDDSVNSWVFGGGTKLTVL", 7.97),
]
